Each recorded value in this set is attributed to the RNAGym collection of RNA variant scans (doi:10.1126/science.aae0568).

B1: tRNA (parent)
chain: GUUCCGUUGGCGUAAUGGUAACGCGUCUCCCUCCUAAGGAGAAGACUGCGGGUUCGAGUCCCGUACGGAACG

Variants of: B1
assay-method-text: yeast fitness relative to wild type (ratio to wild type); higher = fitter; tRNA-Arg(CCU), competitive growth, 37 C, YPD
Variants at the floor of the assay were thinned out.
recorded-endpoint: yeast fitness

Field: example entries. Status: answers known.
1) GUUACGUUGGCGUAAUGGUAACGCGUCUCCCUCCUAACGAGAAGACUGCGGGUUCGAGUCCCGUACGACACG [C4A G38C G68A A69C] = ≤ 0.5
2) GUUCGGUUGGCGUAAUGGUAACGCGUCUCCCUCCUAAGGAGAAGACUGCGGGUUUGAGUCCCGUACGGAACG [C5G C55U] = 0.791
3) GUUCCGUUGGCGUAGUGGUAACGCGUAUCCCUCCUAAGGAGAAGACUGCGGGUUCGAGUGCCGUACGGAACG [A15G C27A C60G] = ≤ 0.5
4) GUUCCGUUGGCGUAAUGGUAACGCGUCUCCCUCCUAAGGACACGUCUGGGGGGUCGAGUCCCGUACGGCACG [G41C A43C A45U C49G U53G A69C] = ≤ 0.5

Incoming: Which yeast fitness is reported for this variant? GGUCCGUUGGCGUAAUGGUAACGCGUCUCCGUCCUAAGCAGAAGACUGCGGGUUCGAGUACCGUACGGAACG [U2G C31G G39C C60A]
Outgoing: ≤ 0.5

Incoming: Param item: GUUCCGUUGGAGUAAUGGUAACGCGUUUCCAUCCUAAGGAGAAGACUGCGGGUUCGAGUCCCGUACGGAACG [C11A C27U C31A]
Outgoing: ≤ 0.5

Incoming: Param item: GUUCCGUUGGCGUAAUGGUAACGCGUCUCCCUCCUAAGGAGGAGACUGCGGGUUCGAGACCCGUACGGAACG [A42G U59A]
Outgoing: 0.939
